The measurements presented in this section are drawn from patent US20200055883A1.

molecular target: Human STING HAQ (Homo sapiens, UniProt Q86WV6, G230A/H232R/R293Q/R71H); test: HAQ STING agonist activity reporter assay (THP1-Dual cells); conditions: Human STING EC50 (μM) HAQ, Table 5; ammonium salt form of each compound; 20 hrs
Sequence (Q86WV6 whole entry R71H/G230A/H232R/R293Q): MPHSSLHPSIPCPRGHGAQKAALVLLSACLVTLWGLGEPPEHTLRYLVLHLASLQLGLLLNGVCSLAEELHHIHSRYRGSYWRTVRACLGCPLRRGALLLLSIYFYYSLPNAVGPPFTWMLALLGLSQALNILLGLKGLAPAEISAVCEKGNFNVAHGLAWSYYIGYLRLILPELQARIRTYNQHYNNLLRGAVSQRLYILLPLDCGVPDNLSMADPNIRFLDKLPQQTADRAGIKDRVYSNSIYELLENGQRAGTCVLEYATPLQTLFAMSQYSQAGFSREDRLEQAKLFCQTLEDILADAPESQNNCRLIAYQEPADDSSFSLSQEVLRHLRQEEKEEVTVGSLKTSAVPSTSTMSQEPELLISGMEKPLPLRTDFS
assayReadout: EC50 (µM)

As a guide, the following entries are already answered.
compound | EC50 [µM]
O=P1(S)OC[C@H]2O[C@@H]3[C@H](F)[C@@H]2OP(=O)(S)OC[C@H]2OC([C@H](F)[C@@H]2O1)n1cnc2c(ncnc21)NCC/C=C/CNc1ncnc2c1ncn23 (single isomer, unassigned) [Compound 37] | 87.2
O=P1(S)OC[C@H]2O[C@@H]3[C@H](F)[C@@H]2OP(=O)(S)OC[C@H]2OC([C@H](F)[C@@H]2O1)n1cnc2c(ncnc21)NCC/C=C/CNc1ncnc2c1ncn23 (single isomer, unassigned) [Compound 11] | 6.8
O=P1(S)OC[C@H]2O[C@@H]3[C@H](F)[C@@H]2OP(=O)(S)OC[C@H]2OC([C@H](F)[C@@H]2O1)n1cnc2c(ncnc21)NCC/C=C/CNc1ncnc2c1ncn23 (single isomer, unassigned) [Compound 12] | 8.2

I = O=P1(O)OC[C@H]2O[C@@H]3[C@H](F)[C@@H]2OP(=O)(O)OC[C@H]2OC([C@H](F)[C@@H]2O1)n1cnc2c(ncnc21)NC/C=C/CNc1ncnc2c1ncn23 [Compound 9]
II = O=[P@]1(S)OC[C@H]2OC3[C@H](F)[C@@H]2O[P@](=O)(S)OC[C@H]2O[C@H]([C@H](F)[C@@H]2O1)n1cnc2c(ncnc21)NCCCCNc1ncnc2c1ncn23 [Compound 6]
III = O=P1(S)OC[C@H]2O[C@@H]3[C@H](F)[C@@H]2OP(=O)(S)OC[C@H]2OC([C@H](F)[C@@H]2O1)n1cnc2c(ncnc21)NCC/C=C/CNc1ncnc2c1ncn23 (single isomer, unassigned) [Compound 8]
# rank by EC50, ascending (min first) Give the labels in the order requested.
II, I, III

----------
target: REF Human STING (Homo sapiens, UniProt Q86WV6); assay: STING variant specific reporter assay, REF-STING (THP1-Dual KO-STING cells); conditions: read-out: hSTING EC50 (μM) REF; Table 6; ammonium salt form, except Compounds 26, 33, 34 tested as bis-TEA salts
Sequence (Q86WV6 whole entry): as the sequence (Q86WV6 whole entry R71H/G230A/H232R/R293Q) above, with H71R, A230G, R232H, Q293R counted along it
assayReadout: EC50

What reported EC50 corresponds to O=[P@]1(S)OC[C@H]2OC3[C@H](F)[C@@H]2O[P@](=O)(S)OC[C@H]2O[C@H]([C@H](F)[C@@H]2O1)n1cnc2c(ncnc21)NC[C@H](O)[C@@H](O)CNc1ncnc2c1ncn23 on REF Human STING (Homo sapiens, UniProt Q86WV6)?
> 100 µM

----------
biological target: Human STING HAQ (Homo sapiens, UniProt Q86WV6, G230A/H232R/R293Q/R71H); assay: HAQ STING agonist activity reporter assay (THP1-Dual cells); conditions: hSTING EC50 (μM) HAQ, Table 6; ammonium salt form, except Compounds 26, 33, 34 tested as bis-TEA salts
assayReadout: EC50 (µM)

A = O=P1(S)OC[C@H]2O[C@@H]3[C@H](F)[C@@H]2OP(=O)(S)OC[C@H]2O[C@H]([C@H](F)[C@@H]2O1)n1cnc2c(ncnc21)NC/C=C/COc1ncnc2c1ncn23 (single isomer, unassigned) [Compound 19]
B = O=[P@]1(S)OC[C@H]2OC3[C@H](F)[C@@H]2O[P@](=O)(S)OC[C@H]2O[C@H]([C@H](F)[C@@H]2O1)n1cnc2c(ncnc21)CC/C=C/CCc1ncnc2c1ncn23
C = O=[P@@]1(S)OC[C@H]2O[C@@H]3[C@H](F)[C@@H]2O[P@](=O)(S)OC[C@H]2OC([C@H](F)[C@@H]2O1)n1cnc2c(ncnc21)OC/C=C/COc1ncnc2c1ncn23
Order the records, beginning with the lowest EC50 and ending with the highest. Please list each label once, in the requested order.
C, B, A

----------
molecular target: AQ Human STING (Homo sapiens, UniProt Q86WV6, G230A/H232R/R293Q); test: STING variant specific reporter assay, AQ-STING (THP1-Dual KO-STING cells); conditions: Human STING EC50 (μM) AQ, Table 4; ammonium salt form of each compound
Sequence (Q86WV6 whole entry G230A/H232R/R293Q): as the sequence (Q86WV6 whole entry R71H/G230A/H232R/R293Q) above, with H71R counted along it
assayReadout: EC50 (µM)

I = O=[P@@]1(S)OC[C@H]2OC3[C@H](F)[C@@H]2O[P@](=O)(S)OC[C@H]2O[C@H]([C@H](O1)[C@@H]2O)n1cnc2c(ncnc21)NC/C=C/CNc1ncnc2c1ncn23 [Compound 16]
II = O=[P@]1(S)OC[C@H]2OC3[C@H](F)[C@@H]2O[P@](=O)(S)OC[C@H]2O[C@H]([C@H](O1)[C@@H]2O)n1cnc2c(ncnc21)NC/C=C/CNc1ncnc2c1ncn23 [Compound 15]
Hi there, can you help? I need to know whether I or II has lower measured EC50. API: response body contains the label of the selected item.
II

----------
target: Human STING HAQ (Homo sapiens, UniProt Q86WV6, G230A/H232R/R293Q/R71H); assay: HAQ STING agonist activity reporter assay (THP1-Dual cells); conditions: Human STING EC50 (μM) HAQ, Table 4; ammonium salt form of each compound; 20 hrs
assayReadout: EC50 (µM)

Recorded EC50, per entry:
compound | unitText | recordedResult
O=[P@]1(S)OC[C@H]2OC3[C@H](O)[C@@H]2O[P@](=O)(S)OC[C@H]2O[C@H]([C@H](O1)[C@@H]2O)n1cnc2c(ncnc21)NC/C=C/CNc1ncnc2c1ncn23 [Compound 13] | µM | 26.7
O=[P@@]1(S)OC[C@H]2OC3[C@H](F)[C@@H]2O[P@](=O)(S)OC[C@H]2O[C@H]([C@H](O1)[C@@H]2O)n1cnc2c(ncnc21)NC/C=C/CNc1ncnc2c1ncn23 [Compound 16] | µM | 28.8

I = O=[P@@]1(S)OC[C@H]2OC3[C@H](O)[C@@H]2O[P@](=O)(S)OC[C@H]2O[C@H]([C@H](O1)[C@@H]2O)n1cnc2c(ncnc21)NC/C=C/CNc1ncnc2c1ncn23 [Compound 14]
II = O=[P@]1(S)OC[C@H]2OC3[C@H](F)[C@@H]2O[P@](=O)(S)OC[C@H]2O[C@H]([C@H](O1)[C@@H]2O)n1cnc2c(ncnc21)NC/C=C/CNc1ncnc2c1ncn23 [Compound 15]
Kindly identify the item with the lower EC50 figure among these two: I and II Select an item and report its label.
II
(II: 24.7 µM, I: 58.2 µM)

----------
target: Human STING HAQ (Homo sapiens, UniProt Q86WV6, G230A/H232R/R293Q/R71H); assay: HAQ STING agonist activity reporter assay (THP1-Dual cells); settings: hSTING EC50 (μM) HAQ, Table 6; ammonium salt form, except Compounds 26, 33, 34 tested as bis-TEA salts
assayReadout: EC50 (µM)

molecule | experimentalSystem | recordedResult
O=[P@]1(S)OC[C@H]2OC3[C@H](F)[C@@H]2O[P@](=O)(S)OC[C@H]2O[C@H]([C@H](F)[C@@H]2O1)n1cnc2c(ncnc21)NCC1NC1CNc1ncnc2c1ncn23 (single isomer, unassigned) [Compound 35] | Human STING HAQ (Homo sapiens, UniProt Q86WV6, G230A/H232R/R293Q/R71H) | 44.5
O=[P@]1(S)OC[C@H]2OC3[C@H](F)[C@@H]2O[P@](=O)(S)OC[C@H]2O[C@H]([C@H](F)[C@@H]2O1)n1cnc2c(ncnc21)NCC#CCNc1ncnc2c1ncn23 [Compound 29] | Human STING HAQ (Homo sapiens, UniProt Q86WV6, G230A/H232R/R293Q/R71H) | 0.62
O=P1(S)OC[C@H]2O[C@@H]3[C@H](F)[C@@H]2OP(=O)(S)OC[C@H]2O[C@H]([C@H](F)[C@@H]2O1)n1cnc2c(ncnc21)NC/C=C/COc1ncnc2c1ncn23 (single isomer, unassigned) [Compound 18] | Human STING HAQ (Homo sapiens, UniProt Q86WV6, G230A/H232R/R293Q/R71H) | 2.3
O=[P@@]1(S)OC[C@H]2O[C@@H]3[C@H](F)[C@@H]2O[P@](=O)(S)OC[C@H]2OC([C@H](F)[C@@H]2O1)n1cnc2c(ncnc21)CC/C=C/CCc1ncnc2c1ncn23 [Compound 34] | Human STING HAQ (Homo sapiens, UniProt Q86WV6, G230A/H232R/R293Q/R71H) | 2.3
O=[P@]1(S)OC[C@H]2OC3[C@H](F)[C@@H]2O[P@](=O)(S)OC[C@H]2O[C@H]([C@H](F)[C@@H]2O1)n1cnc2c(ncnc21)NCC1NC1CNc1ncnc2c1ncn23 (single isomer, unassigned) [Compound 36] | Human STING HAQ (Homo sapiens, UniProt Q86WV6, G230A/H232R/R293Q/R71H) | 31.4

a = O=P1(S)OC[C@H]2O[C@@H]3[C@H](F)[C@@H]2OP(=O)(S)OC[C@H]2O[C@H]([C@H](F)[C@@H]2O1)n1cnc2c(ncnc21)NC/C=C/COc1ncnc2c1ncn23 (single isomer, unassigned) [Compound 20]
b = O=[P@]1(S)OC[C@H]2OC3[C@H](F)[C@@H]2O[P@](=O)(S)OC[C@H]2O[C@H]([C@H](F)[C@@H]2O1)n1cnc2c(ncnc21)NC[C@H](O)[C@@H](O)CNc1ncnc2c1ncn23 [Compound 32]
// select label with min value of measured EC50 from [ a , b ] When you have decided, please share the label of that item.
a
(a: 2.8 µM, b: 15.7 µM)
